Source: ChEMBL document CHEMBL2029271

# target_under_test: Cannabinoid receptor 1 (Homo sapiens)
# Sequence (P21554 whole entry): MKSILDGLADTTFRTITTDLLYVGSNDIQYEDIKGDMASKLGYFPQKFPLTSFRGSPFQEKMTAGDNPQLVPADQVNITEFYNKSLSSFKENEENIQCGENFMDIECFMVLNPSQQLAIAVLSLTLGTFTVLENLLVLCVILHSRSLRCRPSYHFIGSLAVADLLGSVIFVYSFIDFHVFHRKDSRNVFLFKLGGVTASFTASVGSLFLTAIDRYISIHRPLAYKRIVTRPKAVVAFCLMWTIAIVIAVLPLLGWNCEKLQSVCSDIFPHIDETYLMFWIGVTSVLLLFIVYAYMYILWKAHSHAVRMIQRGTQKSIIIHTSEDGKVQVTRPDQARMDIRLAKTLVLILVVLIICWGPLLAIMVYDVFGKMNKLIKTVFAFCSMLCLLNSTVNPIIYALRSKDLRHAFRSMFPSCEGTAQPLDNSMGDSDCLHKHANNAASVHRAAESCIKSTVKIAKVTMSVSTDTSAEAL
# test_summary: biochemical
measure_name: pKi
Here pKi is given on a logarithmic scale as minus log10 of the concentration in mol/L.

IN: Kindly state the measured pKi obtained for "Cc1c(C(=O)N2CCC(C(N)=O)(c3ccccc3)CC2)nn(-c2ccc(Cl)cc2Cl)c1-c1ccc(Cl)cc1" with Cannabinoid receptor 1 (Homo sapiens).
OUT: 9.40

* * *

As a worked illustration, we turn to Ki data collected for UniProt:P34972.
Sequence (P34972 whole entry): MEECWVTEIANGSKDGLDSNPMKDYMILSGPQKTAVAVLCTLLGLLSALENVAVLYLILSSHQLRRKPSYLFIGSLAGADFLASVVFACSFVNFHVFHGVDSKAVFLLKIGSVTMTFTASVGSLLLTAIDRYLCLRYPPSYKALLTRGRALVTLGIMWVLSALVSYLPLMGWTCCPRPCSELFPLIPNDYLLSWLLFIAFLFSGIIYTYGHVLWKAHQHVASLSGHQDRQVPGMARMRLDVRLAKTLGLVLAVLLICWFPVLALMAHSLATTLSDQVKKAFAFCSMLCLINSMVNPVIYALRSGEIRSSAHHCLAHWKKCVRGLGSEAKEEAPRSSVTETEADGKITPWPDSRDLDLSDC
Quick reminder: number only, in µM, skip the unit.

Solved entries (count: 4):
Cc1c(C(=O)N[C@H]2CCCN(S(C)(=O)=O)C2)nn(-c2ccc(Cl)cc2Cl)c1-c1ccc(Cl)cc1
10.9
Cc1c(C(=O)NC2CCN(C(=O)NC(C)(C)C)CC2)nn(-c2ccc(Cl)cc2Cl)c1-c1ccc(Cl)cc1
3.35
Cc1c(C(=O)N2CCC(NC(=O)NCc3ccccc3)(c3ccccc3)CC2)nn(-c2ccc(Cl)cc2Cl)c1-c1ccc(Cl)cc1
17.1
Cc1c(C(=O)N2CCC(NC(=O)NC(C)(C)C)(c3ccccc3)CC2)nn(-c2ccc(Cl)cc2Cl)c1-c1ccc(Cl)cc1
20

IN: Form: Entry = "CC(=O)N1CCC[C@H](NC(=O)c2nn(-c3ccc(Cl)cc3Cl)c(-c3ccc(Cl)cc3)c2C)C1" | System = UniProt:P34972 | Ki = ____
OUT: 4.35

* * *

# test_summary: Plasma concentration in Sprague-Dawley rat at 10 mg/kg, po after 30 mins
# Assay type: ADME, organism-based
# Parameters: dose 10 mg/kg, route oral
# condition_parameters: Sprague-Dawley, plasma
measure_name: concentration at 0.5 h (ng/mL)
Write the value in ng/mL as a bare number.

Cc1c(C(=O)NC2CCN(C(=O)NC(C)(C)C)CC2)nn(-c2ccc(Cl)cc2Cl)c1-c1ccc(Cl)cc1
5.08

Attention now shifts to the item below.
IN: Reported concentration at 0.5 h, compound "Cc1c(C(=O)N2CCC(NC(=O)NC(C)(C)C)(c3ccccc3)CC2)nn(-c2ccc(Cl)cc2Cl)c1-c1ccc(Cl)cc1" : ____
OUT: 3.72

* * *

# test_summary: Drug uptake in Sprague-Dawley rat brain at 10 mg/kg, po after 60 mins
# Assay type: ADME, organism-based
# Design: dose 10 mg/kg, route oral
# condition_parameters: Sprague-Dawley, brain, read-out: Drug uptake
measure_name: concentration at 1 h (ng/mL)
The response must be a number in ng/mL with no trailing unit.

IN: Given the molecule "Cc1c(C(=O)NC2CCN(C(=O)NC(C)(C)C)CC2)nn(-c2ccc(Cl)cc2Cl)c1-c1ccc(Cl)cc1" , what is its reported concentration at 1 h?
OUT: 4.46

* * *

# System: Plasma
# test_summary: Metabolic stability in human plasma assessed as compound remaining at 10 uM preincubated for 5 mins measured after 60 mins
# Format: ADME, cell-free
# condition_parameters: 1 h
measure_name: Stability

Cc1c(C(=O)NCC2CCC(CNS(N)(=O)=O)CC2)nn(-c2ccc(Cl)cc2Cl)c1-c1ccc(Cl)cc1 (stereo not drawn)
> 90%
Cc1c(C(=O)NC2CCN(C(=O)NC(C)(C)C)CC2)nn(-c2ccc(Cl)cc2Cl)c1-c1ccc(Cl)cc1
71%
Cc1c(C(=O)N2CCC(NC(=O)OC(C)(C)C)(c3ccccc3)CC2)nn(-c2ccc(Cl)cc2Cl)c1-c1ccc(Cl)cc1
> 90%

IN: Returns the measured Stability for the input compound. Input: "Cc1c(C(=O)NC2CCN(C(=O)OC(C)(C)C)CC2)nn(-c2ccc(Cl)cc2Cl)c1-c1ccc(Cl)cc1"
OUT: > 90%

IN: May I ask what Stability has been recorded for Cc1c(C(=O)NCC2CCC(CNS(C)(=O)=O)CC2)nn(-c2ccc(Cl)cc2Cl)c1-c1ccc(Cl)cc1 (stereo not drawn) ?
OUT: > 90%

IN: Requested field: Stability. Item: "Cc1c(C(=O)N2CCC(NC(=O)NC(C)(C)C)(c3ccccc3)CC2)nn(-c2ccc(Cl)cc2Cl)c1-c1ccc(Cl)cc1"
OUT: > 90%

IN: Fill in: Stability of Cc1c(C(=O)NN2CCCCC2)nn(-c2ccc(Cl)cc2Cl)c1-c1ccc(Cl)cc1 [RIMONABANT] is ___
OUT: > 90%

IN: Form field: reported Stability of "Cc1c(C(=O)N2CCC(NC(=O)NCc3ccccc3)(c3ccccc3)CC2)nn(-c2ccc(Cl)cc2Cl)c1-c1ccc(Cl)cc1"
OUT: 82%
